Tested on: M14 melanoma
Test: NCI tumour cell line growth inhibition, 48 h
Listing of recorded TGI by entry.

CC1=C(/C=C/C2=CC(=C\C(=O)O)/CC(C3=C(C)CCCC3(C)C)C2)C(C)(C)CCC1 (stereo not given) : 28.5 µM
Cc1ccc(S(=O)(=O)/N=C(\[O-])C2=C(c3ccccc3)NN(C)c3nc4cccc[n+]4nc32)cc1 : > 100 µM
CC(C)c1cccc(C(C)C)c1N=C(N)C#N : > 100 µM

Request - read-out TGI | tested on M14 melanoma | compound COc1ccc(C(C#N)NCCCCCCNC(C#N)c2ccc(OC)cc2)cc1 (stereo not given)
> 100 µM

Request - read-out TGI | tested on M14 melanoma | compound `CC(=N/NC(=S)N1CCCCC1)/C(C)=N\NC(=S)N1CCCCC1`
4.57 µM

Request - read-out TGI | tested on M14 melanoma | compound `O[C@H]1[C@H](O)[C@H](O)CN2CCC[C@@H](O)[C@H]12`
> 100 µM

Request - read-out TGI | tested on M14 melanoma | compound `Cc1ccc(Nc2nc(=O)[nH]c(=O)[nH]2)cc1N=[N+]=[N-]`
> 100 µM

Request - read-out TGI | tested on M14 melanoma | compound CC1=C(C(=O)NCC(C)O)CC(C(=O)NCC(C)O)=C(C)N1 (stereo not given)
> 100 µM

Request - read-out TGI | tested on M14 melanoma | compound CCC(c1ccc(OC)cc1)C(CC)c1ccc(O)c(CN2CCCC2)c1 (stereo not given)
5.08 µM

Request - read-out TGI | tested on M14 melanoma | compound CN[C@@H](C)[C@H](OP(=O)(O)OC1[C@@H](O)[C@H](O)C(O)[C@H](O)[C@@H]1O)c1ccccc1 (stereo not given in full)
> 100 µM

Request - read-out TGI | tested on M14 melanoma | compound `CN(C)CCNC1=CC(=O)c2c(O)ccc(O)c2C1=O`
12.4 µM

----------
Test system: BT-549 breast
Test: NCI tumour cell line growth inhibition, 48 h
Listing of recorded log10 TGI by entry.
Lab note - TGI converted to log10 from values in µM.

Examples with answers:
CN(C)c1ccc2cc(-c3cc4c(oc3=O)-c3ccccc3OC4O)c(=O)oc2c1 (configuration not stated) : 0.83
CCC1CCCCN1C(=S)N/N=C(\C)c1ccccn1 (configuration not stated) : 0.43
COC(OC)(c1ccccc1)C(I)I : 1.36
COc1ccc(C(=O)C(Br)C(Br)C(=O)O)cc1 (configuration not stated) : 1.80

Shifting focus to the compound that follows.
Can you look up the measured log10 TGI of `CN(C)Cc1cccc(CN(C)C)[c]1[Sn]([Br])([c]1ccccc1)[c]1ccccc1` for me?
0.90

----------
Tested on: HOP-92 NSCLC
Assay: NCI tumour cell line growth inhibition, 48 h
QUANTITY_KIND: TGI (µM)
Write the number in µM without appending the unit.

Cc1cccc2c1O/C(=C\c1ncc([N+](=O)[O-])n1C)C2=O : 1.64

Shifting focus to the molecule that follows.
Can you look up the measured TGI of `COc1cc([C@@H]2c3cc4c(cc3[C@H](OC(C)=O)[C@H]3COC(=O)[C@H]23)OCO4)cc(OC)c1OC` for me?
4.94

----------
Test system: UACC-62 melanoma
Experiment: NCI tumour cell line growth inhibition, 48 h
QUANTITY_KIND: TGI (µM)
Write the number in µM without appending the unit.

Examples with answers:
CC([C@H]1CCC2C3CCC4CC5(CC[C@]4(C)C3CC[C@@]21C)c1ccccc1C(=O)N5C)N(C)C (stereo not given in full) : 73
CN(C)CCNC1=CC(=O)c2c(O)ccc(O)c2C1=O : 5.63
COc1cc2cc(C(=O)N3CC(CCl)c4c3cc(N(C)C)c3ccccc43)[nH]c2c(OC)c1OC (stereo not given) : 0.0167

Shifting focus to the compound that follows.
Can you look up the measured TGI of `O=C(Nc1ccc(Cl)cc1)c1cc2cc(F)ccc2cc1O` for me?
23.6
